Cited source for all entries: ChEMBL document CHEMBL1201862

Tested on: SK-MEL-5
METHOD_NOTES: NCI tumour cell line growth inhibition, 48 h
Activity calls are given as the source filed them. No stated cut-off is given here; in the data, active = GI50 up to about 1.1 µM and inactive = higher.
ENDPOINT: GI50

Requested field: GI50. Item: "Nn1c(CCCCCCCCc2nnc(COc3ccccc3)n2N)nnc1COc1ccccc1"
> 100 µM (inactive)

Please do the same for "C=C1C(=O)O[C@H]2[C@H]([C@H](C)CCCC(C)=O)O[C@H]([C@@]3(C)CCC(=O)O3)C[C@@H]12" as well.
> 100 µM (inactive)

Please do the same for "c1ccc2c(c1)nc1n2CCNC1" as well.
> 100 µM (inactive)

Please do the same for CC(Sc1ccccc1)C(CO)(CO)[N+](=O)[O-] (stereo not drawn) as well.
12.7 µM (inactive)

Please do the same for "Clc1ccccc1C(n1cc(Br)cn1)n1cc(Br)cn1" as well.
11 µM (inactive)

Please do the same for "O=C1OC2(c3ccccc3Oc3ccccc32)c2ccccc21" as well.
> 100 µM (inactive)

Please do the same for CCCCCCCCCCCCCCCCCCOCC(O)COP(=O)(O)OCC1OC(n2ccc(N)nc2=O)C(O)C1O (stereo not drawn) as well.
29.9 µM (inactive)

Please do the same for "C/C(=N\NC(=O)Nc1ccccc1Cl)c1ccc(O)cc1" as well.
> 100 µM (inactive)

Please do the same for "Cc1cccnc1N/C=C1\C(=O)NC(=O)N(C)C1=O" as well.
> 100 µM (inactive)

Please do the same for "O=C(Nc1ccc(Nc2ccc(NC(=O)c3ccccc3)c3c2C(=O)c2ccccc2C3=O)c2c1C(=O)c1ccccc1C2=O)c1ccccc1" as well.
> 100 µM (inactive)

Please do the same for "CN1CCC(=O)/C(=C/c2ccccc2)C1" as well.
17.9 µM (inactive)

Please do the same for "COC(=O)C(C)(C)/N=C/N(C)C" as well.
> 100 µM (inactive)

Please do the same for Cc1coc2c1CC1(C)C(CCC(O)C1C)C2 (stereo not drawn) as well.
> 100 µM (inactive)

Please do the same for CCOC(=O)N1N=C(/C(C)=N/OC)C(C)[S+]1[O-] (stereo not drawn) as well.
> 100 µM (inactive)

Please do the same for CCN(CC)CCCCC1CCN(CC(=O)N2CC(C)C(=O)Nc3ccccc32)CC1 (stereo not drawn) as well.
> 100 µM (inactive)

Please do the same for "C=CCSC1=N/C(=C\c2ccc(Cl)cc2)C(=O)N1CC=C" as well.
16.1 µM (inactive)

Please do the same for CCP(=O)(CC)C(Cl)(Cl)C(O)C(Cl)(Cl)Cl (stereo not drawn) as well.
> 100 µM (inactive)

Please do the same for "[O-][n+]1onc(-c2ccccc2)c1CN1CCOCC1" as well.
> 100 µM (inactive)

Please do the same for "Cc1ccc(SCC(=O)C2=C(O)CCCC2=O)cc1" as well.
> 100 µM (inactive)

Please do the same for "COc1ccc(S(=O)(=O)N/N=C\c2cc([N+](=O)[O-])cc(I)c2O)c(OC)c1OC" as well.
21.2 µM (inactive)

Please do the same for "COC(=O)c1ccc(NC(=O)c2cc3c(cc2Br)OCO3)o1" as well.
> 100 µM (inactive)

Please do the same for "CN(C)c1ccc(/N=N/c2ccncc2)cc1" as well.
67 µM (inactive)

Please do the same for "CN1CC(=O)N(C)c2[nH]cnc2C1=O" as well.
> 100 µM (inactive)
